tested-system: T1, Sla1-3, P32790
T1 sequence (P32790 344-424, looked up): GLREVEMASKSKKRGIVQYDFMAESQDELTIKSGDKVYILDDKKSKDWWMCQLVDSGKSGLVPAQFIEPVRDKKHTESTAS
assay-procedure: SPOT array
test-context: median of control spots 5475
Quick reference: SPOT intensity of the listed items.

The cases that follow already have their SPOT intensity on record.
// field: SPOT intensity; key: `NFFRKKLGIPRKLKR` ; value = 58

// field: SPOT intensity; key: `LKHGWKPLRPIKLIS` ; value = 16

// field: SPOT intensity; key: `IHTRRPSSTSQYLIR` ; value = 21

// field: SPOT intensity; key: `QRIRKIPGIPLMSVG` ; value = 8

// field: SPOT intensity; key: `LLGRKRPVMERVVDI` ; value = 4

// field: SPOT intensity; key: `TKRKRPARLIFYDSK` ; value = 33

Now consider the entry below.
// field: SPOT intensity; key: `VATSTSPKLPPRGKQ` ; value = 13
